A collection of compounds and their measured Ki
target: FLT-3 (Homo sapiens, UniProt P36888); assay: FLT-3 inhibition assay, radiometric filter-binding; assay type: biochemical
Sequence (P36888 27-993, species assumed): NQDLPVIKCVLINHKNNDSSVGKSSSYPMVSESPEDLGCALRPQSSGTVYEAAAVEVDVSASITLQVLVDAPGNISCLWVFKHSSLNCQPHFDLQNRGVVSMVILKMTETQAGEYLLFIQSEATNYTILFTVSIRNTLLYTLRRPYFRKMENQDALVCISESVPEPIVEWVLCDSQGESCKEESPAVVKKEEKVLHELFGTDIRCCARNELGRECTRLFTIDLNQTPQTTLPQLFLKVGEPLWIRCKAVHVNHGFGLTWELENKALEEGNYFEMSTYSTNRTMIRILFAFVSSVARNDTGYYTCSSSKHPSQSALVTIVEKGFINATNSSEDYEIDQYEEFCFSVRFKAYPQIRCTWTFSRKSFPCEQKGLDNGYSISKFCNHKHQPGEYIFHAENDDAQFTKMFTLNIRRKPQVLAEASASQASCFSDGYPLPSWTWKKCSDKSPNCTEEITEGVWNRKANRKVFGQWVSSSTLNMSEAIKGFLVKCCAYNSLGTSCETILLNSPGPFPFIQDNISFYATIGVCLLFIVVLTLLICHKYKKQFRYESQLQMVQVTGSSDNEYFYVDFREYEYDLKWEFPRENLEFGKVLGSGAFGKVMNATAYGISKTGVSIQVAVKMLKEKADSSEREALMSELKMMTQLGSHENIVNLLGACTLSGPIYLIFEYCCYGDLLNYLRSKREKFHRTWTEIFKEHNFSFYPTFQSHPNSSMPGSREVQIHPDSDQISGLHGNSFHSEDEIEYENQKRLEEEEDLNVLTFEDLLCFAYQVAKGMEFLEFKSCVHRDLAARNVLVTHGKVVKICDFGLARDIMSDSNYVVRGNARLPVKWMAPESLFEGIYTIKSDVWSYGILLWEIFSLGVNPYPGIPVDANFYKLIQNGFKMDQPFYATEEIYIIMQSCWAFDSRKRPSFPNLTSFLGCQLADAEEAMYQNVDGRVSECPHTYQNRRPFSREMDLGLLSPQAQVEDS

Cc1cc(Nc2cc(N3CCC3)nc(Sc3ccc(N(C)C(=O)c4ccccc4F)cc3)n2)n[nH]1	50 to 150 nM
Cc1cc(Nc2cc(N3CC(O)(C4CC4)C3)nc(Sc3ccc4ccccc4c3)n2)n[nH]1	≤ 50 nM
Cc1cnc(Nc2cc(N3CC(O)C3)nc(Sc3ccc(NC(=O)C4CC4)cc3)n2)s1	≤ 50 nM
Cc1cc(Nc2cc(N3CCC3)nc(Sc3cccc(NC(=O)c4ccccc4Cl)c3)n2)[nH]n1	150 to 1000 nM

Any idea what its Ki is? The compound is Cc1cc(Nc2cc(N3CC(C#N)C3)nc(Sc3ccc(NC(=O)c4ccccc4Cl)cc3)n2)n[nH]1
50 to 150 nM
